# target-desc: furin, P09958;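 further: purified furin at 1:10 enzyme:substrate in 50 mM HEPES pH 7.5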
# Sequence (P09958 whole entry): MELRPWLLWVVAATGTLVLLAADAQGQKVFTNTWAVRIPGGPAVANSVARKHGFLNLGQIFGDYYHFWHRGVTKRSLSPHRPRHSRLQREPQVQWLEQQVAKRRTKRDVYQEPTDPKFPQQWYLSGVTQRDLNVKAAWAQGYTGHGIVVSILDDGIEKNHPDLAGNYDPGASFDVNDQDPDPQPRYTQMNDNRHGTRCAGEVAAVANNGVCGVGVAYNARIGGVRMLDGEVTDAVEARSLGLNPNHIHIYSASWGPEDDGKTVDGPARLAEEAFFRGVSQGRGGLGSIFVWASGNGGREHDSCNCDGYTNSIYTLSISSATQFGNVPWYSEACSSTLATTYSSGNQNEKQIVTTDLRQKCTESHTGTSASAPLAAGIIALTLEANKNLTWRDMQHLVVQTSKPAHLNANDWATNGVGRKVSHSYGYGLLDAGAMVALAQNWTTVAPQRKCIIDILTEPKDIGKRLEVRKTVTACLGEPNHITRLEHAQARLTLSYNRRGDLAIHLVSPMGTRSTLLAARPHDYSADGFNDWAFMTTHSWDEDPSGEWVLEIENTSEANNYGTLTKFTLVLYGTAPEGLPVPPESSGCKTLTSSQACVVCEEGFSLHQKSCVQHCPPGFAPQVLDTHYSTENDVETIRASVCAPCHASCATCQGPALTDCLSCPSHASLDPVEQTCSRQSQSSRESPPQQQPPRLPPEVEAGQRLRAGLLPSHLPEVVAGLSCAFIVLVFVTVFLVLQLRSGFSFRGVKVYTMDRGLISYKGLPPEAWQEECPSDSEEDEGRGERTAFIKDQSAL
# protocol-text: furin cleavage Z-score vs untreated control; higher = more cleavage, active = 3.5 or more, inactive = 1 or less, 8 variable residues between constant flanks
# experimental-parameters: 7.5 min
The other results are listed elsewhere or left out. The true hit rate is not given.
assay-metric: furin cleavage Z-score
Output: the number by itself.

| query-sequence | furin cleavage Z-score |
| --- | --- |
| CAAVTHINSVAGNASASA [HC1428] | -1.27 |
| CAVLSGKPAIAGNASASA [HC1004] | -1.21 |
| CASAHREPRLAGNASASA [FS-143] | -0.537 |

Exercise: Query (sequence): CAVLSRDGRKAGNASASA [FS-105] ; field requested: furin cleavage Z-score
Key: -1.15

Exercise: Same question for CAEVVVCCSMAGNASASA [HC2130] please.
Key: 0.168

Exercise: Same question for CADEVDNKVKAGNASASA [CS4] please.
Key: -0.725

Exercise: Same question for CAPRYRRKRHAGNASASA [FS-1552] please.
Key: 10.8
